src = the supplement of paper PMC9112550

# System: Escherichia coli TOP10
# assay_overview: shrunken log2 fold change of peptide-encoding DNA abundance (4.5 h post-induction vs induction); higher = less antimicrobial activity (less host growth inhibition)
# condition_label: time post-induction: 4.5 h; library: site-saturation at positions 5, 18, 19, 20
attribute_measured: shrunken log2 fold change
Give the value as a plain number.

Memo: `RRIRWRPPRLPRPRPRPIYQPRP` , reported shrunken log2 fold change: -0.288

The value of shrunken log2 fold change measured for the sequence `RRIRRRPPRLPRPRPRPMCKPRP` turned out to be 0.141

shrunken log2 fold change reported for this sequence `RRIRRRPPRLPRPRPRPKMPPRP` : 0.191

Recorded shrunken log2 fold change (sequence `RRIRHRPPRLPRPRPRPQRLPRP` ): 0.00653

In plain terms, `RRIRYRPPRLPRPRPRPGHCPRP` has a documented shrunken log2 fold change of -0.0945

The measured shrunken log2 fold change associated with `RRIRPRPPRLPRPRPRPAFSPRP` reads 0.117

The reported value for `RRIRGRPPRLPRPRPRPGVRPRP` in terms of shrunken log2 fold change is 0.659

Record `RRIRVRPPRLPRPRPRPPQMPRP` . Reported shrunken log2 fold change: 0.236

###

# System: Escherichia coli TOP10;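 note: peptides expressed intracellularly from a pBAD plasmid library in pooled LB shake-flask culture, induced with 0.3% L-arabinose, DNA abundance read by NGS, three biological replicates, DESeq2 with apeglm shrinkage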
# assay_overview: shrunken log2 fold change of peptide-encoding DNA abundance (4.5 h post-induction vs induction); higher = less antimicrobial activity (less host growth inhibition)
# condition_label: time post-induction: 4.5 h; library: site-saturation at positions 5, 18, 19, 20
Label yes (1) when shrunken log2 fold change is at or above 0.02; otherwise label no (0).

Quick check: does `RRIRNRPPRLPRPRPRPLWEPRP` have shrunken log2 fold change greater than or equal to 0.02? no (0)

Can `RRIRDRPPRLPRPRPRPHWWPRP` be said to have shrunken log2 fold change at or above 0.02? yes (1)

Item `RRIRTRPPRLPRPRPRPTTDPRP` with shrunken log2 fold change of 0.02 or above? no (0)

Reported shrunken log2 fold change at or above 0.02? `RRIRCRPPRLPRPRPRPWCHPRP` no (0)

Please indicate if the recorded shrunken log2 fold change for `RRIRFRPPRLPRPRPRPRHYPRP` meets or exceeds 0.02. no (0)

Entry `RRIRNRPPRLPRPRPRPFKSPRP` : is its shrunken log2 fold change no less than 0.02? no (0)

Is it the case that `RRIRNRPPRLPRPRPRPIILPRP` has shrunken log2 fold change reaching or exceeding 0.02? no (0)

Exam item: decide whether the reported shrunken log2 fold change for `RRIRKRPPRLPRPRPRPQPYPRP` is at least 0.02. no (0)

# check: shrunken log2 fold change of `RRIRPRPPRLPRPRPRPERQPRP` is greater than or equal to 0.02 yes (1)

Quick check: does `RRIRFRPPRLPRPRPRPPGQPRP` have shrunken log2 fold change greater than or equal to 0.02? yes (1)

Does the reported shrunken log2 fold change for `RRIRLRPPRLPRPRPRPTMMPRP` fall at or above the 0.02 mark? no (0)

Reported shrunken log2 fold change at or above 0.02? `RRIRLRPPRLPRPRPRPQIVPRP` no (0)

Does shrunken log2 fold change meet or surpass 0.02 for `RRIRNRPPRLPRPRPRPQTRPRP` ? yes (1)

Test whether the sequence `RRIRTRPPRLPRPRPRPKMKPRP` records shrunken log2 fold change of 0.02 or higher. no (0)

Has `RRIRNRPPRLPRPRPRPPYIPRP` a recorded shrunken log2 fold change greater than or equal to 0.02? no (0)

Exam item: decide whether the reported shrunken log2 fold change for `RRIRDRPPRLPRPRPRPSQFPRP` is at least 0.02. no (0)

Could you please find out whether `RRIRMRPPRLPRPRPRPSAYPRP` has shrunken log2 fold change that meets 0.02 or exceeds it? yes (1)

Could you verify whether the entry `RRIRCRPPRLPRPRPRPNVHPRP` shows shrunken log2 fold change of no less than 0.02? no (0)

Record `RRIRCRPPRLPRPRPRPEDPPRP` ; criterion: shrunken log2 fold change no lower than 0.02. Met? yes (1)

Check if shrunken log2 fold change >= 0.02 (inclusive). Item: `RRIRRRPPRLPRPRPRPTGEPRP` yes (1)

Can `RRIRYRPPRLPRPRPRPLKPPRP` be said to have shrunken log2 fold change at or above 0.02? no (0)

Determine whether this sequence has shrunken log2 fold change no lower than 0.02: `RRIRFRPPRLPRPRPRPSHDPRP` no (0)

// inclusive: shrunken log2 fold change at least 0.02? input: `RRIRLRPPRLPRPRPRPNSFPRP` no (0)

For this sequence, is measured shrunken log2 fold change 0.02 or higher? `RRIRERPPRLPRPRPRPSTHPRP` no (0)

Is it the case that `RRIRFRPPRLPRPRPRPPEQPRP` has shrunken log2 fold change reaching or exceeding 0.02? no (0)

Reported shrunken log2 fold change reaches at least 0.02 for `RRIRCRPPRLPRPRPRPQQVPRP` ? no (0)

Can `RRIRERPPRLPRPRPRPNACPRP` be said to have shrunken log2 fold change at or above 0.02? no (0)

Is it the case that `RRIRHRPPRLPRPRPRPPFNPRP` has shrunken log2 fold change reaching or exceeding 0.02? no (0)

Form field: shrunken log2 fold change at least 0.02? Entry: `RRIRRRPPRLPRPRPRPTHGPRP` yes (1)

Is the recorded value of shrunken log2 fold change equal to or greater than 0.02 for this sequence? `RRIRFRPPRLPRPRPRPRIVPRP` no (0)

Hi team, for `RRIRYRPPRLPRPRPRPTKMPRP` , is the recorded shrunken log2 fold change at or above 0.02? no (0)

Please indicate if the recorded shrunken log2 fold change for `RRIRFRPPRLPRPRPRPVRVPRP` meets or exceeds 0.02. yes (1)

Is shrunken log2 fold change for `RRIRIRPPRLPRPRPRPLSNPRP` at or above 0.02? no (0)

Check this sequence for shrunken log2 fold change at or above 0.02: `RRIRLRPPRLPRPRPRPIDEPRP` no (0)

For this sequence, is measured shrunken log2 fold change 0.02 or higher? `RRIRQRPPRLPRPRPRPHTAPRP` no (0)

Can `RRIRKRPPRLPRPRPRPYLIPRP` be said to have shrunken log2 fold change at or above 0.02? no (0)

// inclusive: shrunken log2 fold change at least 0.02? input: `RRIRMRPPRLPRPRPRPHNKPRP` no (0)

Decide: shrunken log2 fold change of `RRIRSRPPRLPRPRPRPFPRPRP` >= 0.02? yes (1)

Evaluate `RRIRVRPPRLPRPRPRPEHTPRP` : shrunken log2 fold change at minimum 0.02? yes (1)

Exam item: decide whether the reported shrunken log2 fold change for `RRIRNRPPRLPRPRPRPWLTPRP` is at least 0.02. no (0)

Identify whether the reported shrunken log2 fold change of the following sequence is 0.02 or greater: `RRIRPRPPRLPRPRPRPGCWPRP` yes (1)

Please tell me: is the sequence `RRIRFRPPRLPRPRPRPNQAPRP` at or over 0.02 in terms of shrunken log2 fold change? yes (1)

Test whether the sequence `RRIRRRPPRLPRPRPRPPYIPRP` records shrunken log2 fold change of 0.02 or higher. yes (1)

Textbook exercise: given the entry `RRIRSRPPRLPRPRPRPLLDPRP` , state whether its shrunken log2 fold change is greater than or equal to 0.02. yes (1)

// inclusive: shrunken log2 fold change at least 0.02? input: `RRIRFRPPRLPRPRPRPSYRPRP` no (0)

Exam item: decide whether the reported shrunken log2 fold change for `RRIRRRPPRLPRPRPRPGKIPRP` is at least 0.02. yes (1)

In plain terms: is recorded shrunken log2 fold change at least 0.02 for `RRIRKRPPRLPRPRPRPILYPRP` ? no (0)

Answer whether shrunken log2 fold change of `RRIRARPPRLPRPRPRPDKMPRP` is greater than or equal to 0.02. yes (1)

Tell me whether shrunken log2 fold change is at least 0.02 here: `RRIRERPPRLPRPRPRPVHEPRP` no (0)

Hi team, for `RRIRHRPPRLPRPRPRPFNDPRP` , is the recorded shrunken log2 fold change at or above 0.02? no (0)

Kindly determine if shrunken log2 fold change recorded for `RRIRVRPPRLPRPRPRPRFQPRP` is above or exactly 0.02. yes (1)

State whether the measured shrunken log2 fold change reaches 0.02, counting equality as reaching it, for `RRIRRRPPRLPRPRPRPQWEPRP` no (0)

Decide: is the reported value of shrunken log2 fold change for `RRIRFRPPRLPRPRPRPSGPPRP` equal to or greater than 0.02? yes (1)

Could you tell me if the measured shrunken log2 fold change of `RRIRERPPRLPRPRPRPIISPRP` reaches 0.02 or more? no (0)

Is the recorded value of shrunken log2 fold change equal to or greater than 0.02 for this sequence? `RRIRWRPPRLPRPRPRPCKLPRP` no (0)

Quick check: does `RRIRNRPPRLPRPRPRPKKPPRP` have shrunken log2 fold change greater than or equal to 0.02? no (0)

Entry `RRIRMRPPRLPRPRPRPYVCPRP` : is its shrunken log2 fold change no less than 0.02? no (0)

Can `RRIRPRPPRLPRPRPRPHMHPRP` be said to have shrunken log2 fold change at or above 0.02? no (0)

// inclusive: shrunken log2 fold change at least 0.02? input: `RRIRTRPPRLPRPRPRPRHNPRP` no (0)

Tell me whether shrunken log2 fold change is at least 0.02 here: `RRIRKRPPRLPRPRPRPNVSPRP` yes (1)

Given `RRIRLRPPRLPRPRPRPPWPPRP` , state whether its shrunken log2 fold change is at least 0.02. yes (1)

Confirm if shrunken log2 fold change reported for the sequence `RRIRGRPPRLPRPRPRPMAMPRP` is 0.02 or above. yes (1)
